# maps each entry to its melting point

Recorded melting point, per entry:
Compound	Readout label	Reported result
CC(C)(C)C(=O)Oc1ccc(OC(=O)C(C)(C)C)c(C(=O)O)c1	melting point	159 to 162 °C
Cc1ccc(NC(=O)c2ccc(CN(C)C)c(C(F)(F)F)c2)cc1-c1ccc2ccncc2c1	melting point	169 to 172 °C
Cc1cc(-c2noc(N(C)C)n2)ccc1-c1ccc(C(=O)N2CCCc3cc4c(cc32)C2(CCN(C)CC2)CO4)cc1	melting point	118 to 120 °C
CS(=O)(=O)OCCC1c2ccccc2COc2ccccc21 (stereo not given)	melting point	64 to 66 °C

In the following, a different compound is considered.
Lab book: melting point of CC(Nc1nc2ccc(Cl)cc2cc1C(=O)O)C(=O)O (stereo not given) noted as 178 to 190 °C

* * *

# maps each entry to its melting point

Compound	melting point
CC(C)c1c(Oc2ccccc2)n(COCc2ccccc2)c(=O)[nH]c1=O	118 °C
NS(=O)(=O)c1cc(C(=O)O)cc([N+](=O)[O-])c1Oc1cccc(C(F)(F)F)c1	210 °C
CCO[C@H]1CCN(C(=O)c2cc(-c3ccccc3)c(=O)n3c2-c2cc(Cl)ccc2CC3)C1	134 to 136 °C

In the following, a different compound is considered.
Lab book: melting point of `O=C(O)CCCCNc1ccccc1-c1ccccc1` noted as 73 to 75 °C

* * *

# maps each entry to its melting point

Compound	Readout label	Reported result
CC1CC(=O)NN=C1c1ccc(O)cc1 (stereo unspecified)	melting point	268 to 273 °C
CNC(=O)C(=NOC)c1ccccc1COc1ncc(C(=O)OC(C)C)cc1C	melting point	101 to 102 °C
CCOC(=O)C(=CNc1nnc(C)s1)C(=O)c1cc(F)c(Cl)nc1Cl	melting point	142 to 152 °C
O=C(Nc1nnc(CC2CC2)o1)C1c2ccccc2Oc2ccccc21	melting point	140 to 141 °C
CCCCCCCCOc1ccc(-c2ccc(OCC(C)OC(=O)C(C)CC)cc2)cc1 (stereo unspecified)	melting point	56 °C
CCCCCCCCCCCCCCCCCCN(C)c1ccc(N)cc1C(=O)O	melting point	81 to 83 °C

Lab book: melting point of OCC(O)Cc1ccccc1OCc1ccc2ccccc2c1 (stereo unspecified) noted as 119 to 120 °C

Lab book: melting point of `N=C(Nc1ccc2c(c1)CNCCO2)c1ccsc1` noted as 150 to 152 °C

Lab book: melting point of FC(F)(F)c1cc(CO[C@@H]2CCCN(Cc3nnn[nH]3)[C@@H]2c2ccccc2)cc(C(F)(F)F)c1 (relative stereo) noted as 114 to 115 °C

Lab book: melting point of `Nc1ccc(C(=O)c2cnc(NC3CCCCC3)s2)cc1[N+](=O)[O-]` noted as 245 to 250 °C

* * *

Readout label: melting point

Lab book: melting point of O=C1NCC(Cc2ccc3c(c2)OCO3)O1 (stereo not drawn) noted as 98.5 to 100 °C

Lab book: melting point of `O=C(O)c1cnc2cc(O)ccc2c1` noted as > 260 °C

Lab book: melting point of `COC(=O)C(O)(c1ccc(C)cc1)c1ccc(C)cc1` noted as 83 to 84 °C

* * *

# maps each entry to its melting point

Compound	melting point
O=C(O)c1cc(O)c(C(=O)c2ccc(Cl)cc2)c([N+](=O)[O-])c1	266 to 268 °C

Lab book: melting point of `CCc1cn(-c2ncccn2)c2c1C(=O)CC(C)(C)C2` noted as 111 to 114 °C

Lab book: melting point of COC(=O)C(C)c1ccc2oc(-c3c(F)cccc3Cl)nc2c1 (centres undefined) noted as 104 to 105 °C

Lab book: melting point of Cn1nnnc1CC(O)(Cn1cncn1)c1ccc(Cl)cc1Cl (centres undefined) noted as 182 to 184 °C

* * *

Readout label: melting point

Smiles notation	melting point
CS(=O)(=O)OCCNc1cc(Cl)ccc1[N+](=O)[O-]	101 to 102 °C
CC(C)(Cn1cnc2c(N)nc3c(c21)CCCC3)OCCS(C)(=O)=O	219 to 223 °C

In the following, a different compound is considered.
Lab book: melting point of `ON=Cc1ccc(OCc2coc(-c3ccc(C(F)(F)F)cc3)n2)cc1` noted as 155 to 160 °C

* * *

# maps each entry to its melting point

Recorded melting point, per entry:
Molecule	melting point
NC(=NO)c1cccc(Oc2ccc3c(c2)S(=O)(=O)N=C2CCCN23)c1	165 to 169 °C
Nc1ccc2c(c1)CC(CC(=O)O)C2=O (centres undefined)	192 to 194 °C
CCN(CC)C(=O)n1cc(Cl)c(S(=O)(=O)c2c(C)cc(C)cc2C)n1	84 to 86 °C
C=Cc1ccc(CC(=O)O)cc1	94 °C
COc1ccccc1C1(CC(=O)N2CCN(c3ccncc3)CC2)C(=O)Nc2ccc(Cl)cc21 (centres undefined)	111 °C
COC(=O)C(=O)c1c[nH]c2ccccc12	226 to 228 °C
Oc1ccc(-c2nnc(-c3ccc(Oc4ccccc4)cc3)o2)cc1	204 to 206 °C
ON=c1ccccc2cnccc12	164 to 167 °C
COc1ccc(C(=O)c2ccccc2)cc1COc1ccc(Cl)cc1	103 °C
C=CCNC(=O)CN1CCN(Cc2ccc3c(c2)NC(=O)C(C)O3)CC1 (centres undefined)	151 to 158 °C

Lab book: melting point of `COc1ccc2[nH]c3c([N+](=O)[O-])cc([N+](=O)[O-])c(Cl)c3c(=O)c2c1` noted as 253 to 254 °C

Lab book: melting point of `N=C(NCl)c1ccsc1` noted as 96 to 98 °C

Lab book: melting point of `O=C(Nc1ccc(Br)c2c1C(=O)c1ccccc1C2=O)c1ccccc1` noted as 300 °C

Lab book: melting point of `Cc1c(Cl)cc(C=O)c(O)c1Cl` noted as 94 to 95.1 °C

Lab book: melting point of `COC(=O)C(C)(C)c1ccc(C(=O)Nc2cn3cc(Cl)ccc3n2)cc1` noted as 245 to 246 °C

Lab book: melting point of `CCc1c(-c2ccc(OC)cc2)cn2ccc(OC)cc12` noted as 101 to 103 °C

Lab book: melting point of `O=c1c2ccccc2nnn1CCCN1CCC(c2c[nH]c3ccccc23)CC1` noted as 60 °C

Lab book: melting point of `CC(C)CNc1cc(C(=O)O)cc(S(N)(=O)=O)c1Sc1ccc(N)cc1` noted as 250 to 252 °C

Lab book: melting point of `CCNC(=O)c1ccc(C=C(C)c2ccc3c(c2)C(C)(C)CCO3)cc1` noted as 161 to 163 °C

* * *

# maps each entry to its melting point

Recorded melting point, per entry:
Compound	Reported result
COC(=O)N(CCCc1ccccc1)[C@H]1CC[C@H](c2ccc(O)cc2)CC1	128 to 133 °C
CCOC(=O)c1ccc(-c2cccc3cncn23)cc1	118 to 119 °C
CC(C)C[C@@H](C=O)NC(=O)[C@H](Cc1c[nH]cn1)NC(=O)[C@H](Cc1ccc2ccccc2c1)NC(=O)OCc1ccccc1	110 to 112 °C
O=C1OC2(C=Cc3ccccc3O2)c2ccccc21 (stereo not given)	113 to 114 °C

In the following, a different compound is considered.
Lab book: melting point of `Fc1ccc(N2CCN(CCCOc3ccc(-n4cccn4)cc3)CC2)cc1` noted as 151 to 153 °C

* * *

Readout label: melting point

Lab book: melting point of `Cn1cc(-c2cc3nccnc3[nH]2)c2cc(O)ccc21` noted as 289 to 290 °C

* * *

Readout label: melting point

Recorded melting point, per entry:
Molecule	melting point
C=C(C)C(=O)OCCCCCCOc1ccc(C(=O)O)cc1	83 °C
O=C(Cl)C=Cc1ccc(Cl)cc1	78 to 80 °C
O=C(C=Cc1ccc(Cl)cc1)C(CC=Cc1ccc(Cl)cc1)c1ccccc1 (centres undefined)	115 to 118 °C

In the following, a different molecule is considered.
Lab book: melting point of `CC(C)(O)Cn1c(N)nc2c(N)nc3c(c21)CCCC3` noted as > 270 °C

* * *

# maps each entry to its melting point

Recorded melting point, per entry:
Compound	melting point
CN(C)c1c(C#N)cnc2c(NC(=O)c3c(Cl)cccc3Cl)cccc12	227 to 228 °C
COC(=NC(=O)c1ccccc1)NC(=O)c1ccccc1	139 to 141 °C
Nc1nc(NCc2ccccc2)c2ncn(C3CC(F)C(CO)O3)c2n1 (stereo unspecified)	90 to 94 °C
Cc1ccc(CCCO)c(NCc2ccc3nc(NCCCN4CCOCC4)n(Cc4cccc5c4ncn5C)c3c2)c1	198 °C
CCC(CC)n1nnc2cc(C)c(C)c(N)c21	114 to 117 °C
Cn1nc(O[C@@H]2c3cc([N+](=O)[O-])ccc3OC(CF)(CF)[C@H]2O)ccc1=O (relative stereo)	226 to 228 °C
Cn1c(C(F)(F)F)cc(=O)n(-c2cc3c(cc2F)nc(C(F)(F)F)n3Cc2cccc(Cl)c2)c1=O	91 to 93 °C
CC(C)(C)c1ccc(C(O)CCCN2CCC(=C3c4ccccc4COc4ccccc43)CC2)cc1 (stereo unspecified)	160 to 161 °C

Lab book: melting point of `O=c1[nH]c2c(c3nc(-c4ccccc4F)cn13)CNCC2` noted as > 310 °C

Lab book: melting point of `COC(=O)C(=O)Cc1ccc(SC)cc1` noted as 112 to 113 °C

Lab book: melting point of Cn1cncc1COCC(O)c1ccccc1 (stereo unspecified) noted as 102 to 105 °C

Lab book: melting point of O=C(NO)C(CCN1C(=O)c2ccccc2C1=O)NS(=O)(=O)c1ccc(-c2ccc(Cl)cc2)cc1 (stereo unspecified) noted as 184 to 186 °C

Lab book: melting point of `CC(C)(C#N)C1(c2ccc(Cl)cc2)CCC1` noted as 73 to 75 °C

Lab book: melting point of `NC(=O)N(O)C[C@H]1C[C@@H](c2ccc(C(F)(F)F)cc2)C1` noted as 144 to 146 °C

Lab book: melting point of `CCOC(=O)Cc1ccc(OCCCCl)c(OC)c1` noted as 36 to 38 °C

Lab book: melting point of `NC(=O)CNC(=O)c1ccc(F)c(-c2ccc(F)c3cc(Cc4cc(F)cc(Cl)c4)sc23)c1` noted as 178 to 179 °C
